Value source: patent EP3722296B1

Biological target: c-KIT kinase (Homo sapiens, UniProt P10721)
Sequence (P10721 544-976): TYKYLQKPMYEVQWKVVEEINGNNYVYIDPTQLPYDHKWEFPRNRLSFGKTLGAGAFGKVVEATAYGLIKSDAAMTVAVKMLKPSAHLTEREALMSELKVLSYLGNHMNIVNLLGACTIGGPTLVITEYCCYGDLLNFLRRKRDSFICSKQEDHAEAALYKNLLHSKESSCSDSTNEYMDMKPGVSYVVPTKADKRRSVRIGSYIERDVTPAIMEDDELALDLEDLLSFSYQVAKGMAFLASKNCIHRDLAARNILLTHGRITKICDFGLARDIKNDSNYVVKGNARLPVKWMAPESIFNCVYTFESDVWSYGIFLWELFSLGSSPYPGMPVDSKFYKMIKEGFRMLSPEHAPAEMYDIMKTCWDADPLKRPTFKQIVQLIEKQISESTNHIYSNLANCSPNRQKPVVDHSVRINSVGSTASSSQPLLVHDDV
Assay: c-KIT kinase Assay
Format: biochemical
Set-up: cKIT residues T544-V976; GST (N); TEV cleavage site (internal); purchased deCODE Biostructures
Details: enzymatic assay, ATP 200 µM; read-out: KIT (wt) IC50
pIC50: −log10 of the molar value.
MEASURED ENDPOINT: pIC50

Field: pIC50 (c-KIT kinase (Homo sapiens, UniProt P10721)). Entry: CCn1c(=O)c(-c2cc(NC(=O)Nc3ccccc3)c(F)cc2Cl)cc2cnc(NC(C)=O)cc21
> 8.00

Request body: readout pIC50, system c-KIT kinase (Homo sapiens, UniProt P10721), query CCn1c(=O)c(-c2cc(NC(=O)Nc3csc4ccccc34)c(F)cc2C)cc2cnc(NC(=O)N(C)C)cc21 . Return the value.
7.00 to 8.00

Recall the recorded pIC50 for CCn1c(=O)c(-c2cc(NC(=O)Nc3ccccc3)c(F)cc2C)cc2cnc(NC(=O)N(C)C)cc21 with c-KIT kinase (Homo sapiens, UniProt P10721) and state it.
7.00 to 8.00

Return pIC50 measured with c-KIT kinase (Homo sapiens, UniProt P10721) given this compound: CCn1c(=O)c(-c2cc(NC(=O)Nc3cccc(F)c3)c(F)cc2Br)cc2cnc(NC)cc21
> 8.00

# get_value(readout= pIC50, system= c-KIT kinase (Homo sapiens, UniProt P10721)) for CCn1c(=O)c(-c2cc(NC(=O)Nc3ccc(F)c(CN4CCN(C)CC4)c3)c(F)cc2C)cc2cnc(NC)cc21
7.00 to 8.00

Please tell me: pIC50 of CCn1c(=O)c(-c2cc(NC(=O)Nc3ccccc3)c(F)cc2Br)cc2cnc(N)cc21 , system c-KIT kinase (Homo sapiens, UniProt P10721)?
> 8.00

Under c-KIT kinase (Homo sapiens, UniProt P10721): pIC50 value of CCn1c(=O)c(-c2cc(NC(=O)Nc3cc(F)ccc3F)c(F)cc2C)cc2cnc(NC)cc21 ?
> 8.00

---

Molecular target: VV559-560 deletion/D816V KIT (Homo sapiens, UniProt P10721, D816V/DEL559-560)
Sequence (P10721 with tags, fused parts or gaps DEL559-560/D816V): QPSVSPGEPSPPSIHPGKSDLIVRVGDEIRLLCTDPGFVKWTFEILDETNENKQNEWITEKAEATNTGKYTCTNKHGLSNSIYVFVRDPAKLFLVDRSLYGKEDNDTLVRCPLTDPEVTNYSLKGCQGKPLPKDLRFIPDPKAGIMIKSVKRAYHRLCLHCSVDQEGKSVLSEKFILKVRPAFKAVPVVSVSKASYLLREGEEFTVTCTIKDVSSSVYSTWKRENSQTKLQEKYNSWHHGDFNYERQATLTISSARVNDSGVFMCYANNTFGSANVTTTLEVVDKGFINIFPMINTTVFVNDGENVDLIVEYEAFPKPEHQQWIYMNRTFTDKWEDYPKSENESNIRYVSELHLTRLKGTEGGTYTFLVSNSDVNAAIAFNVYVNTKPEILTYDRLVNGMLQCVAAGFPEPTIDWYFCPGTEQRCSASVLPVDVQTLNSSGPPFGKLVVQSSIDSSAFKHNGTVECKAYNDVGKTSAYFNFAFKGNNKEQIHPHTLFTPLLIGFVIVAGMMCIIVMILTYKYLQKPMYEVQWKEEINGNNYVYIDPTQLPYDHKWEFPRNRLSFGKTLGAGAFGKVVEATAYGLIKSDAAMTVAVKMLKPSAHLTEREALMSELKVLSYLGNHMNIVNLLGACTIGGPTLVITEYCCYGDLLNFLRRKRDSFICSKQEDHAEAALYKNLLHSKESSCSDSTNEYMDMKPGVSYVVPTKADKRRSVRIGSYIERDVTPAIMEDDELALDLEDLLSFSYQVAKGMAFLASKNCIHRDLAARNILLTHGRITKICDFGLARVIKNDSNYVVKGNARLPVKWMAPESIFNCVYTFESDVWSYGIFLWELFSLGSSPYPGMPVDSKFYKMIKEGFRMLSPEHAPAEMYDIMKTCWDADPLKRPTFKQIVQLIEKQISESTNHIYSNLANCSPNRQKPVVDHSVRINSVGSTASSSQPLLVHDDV
Assay: CHO K1 phospho-KIT Western
Conditions: transient transfected CHO K1 cells, phospho-KIT (Tyr719), read-out: KIT kinase domain mutations (primary/secondary): VV559-560 deletion / D816V
MEASURED ENDPOINT: IC50

Could you tell me which IC50 is on file for CCn1c(=O)c(-c2cc(NC(=O)Nc3ccccc3)c(F)cc2C)cc2cnc(NC)cc21 [Example 23] ?
100 to 1000 nM

Param item = CCn1c(=O)c(-c2cc(NC(=O)Nc3csc4ccccc34)c(F)cc2C)cc2cnc(NC)cc21 [Example 59] ; retrieve measured IC50.
10 to 100 nM

---

Target: c-KIT VVDV kinase (Homo sapiens, UniProt P10721, D816V/DEL559-560)
Construct: This construct contains residues T544-V976 of cKit; GST (N); TEV cleavage site (internal)
Sequence (P10721 with tags, fused parts or gaps DEL559-560/D816V): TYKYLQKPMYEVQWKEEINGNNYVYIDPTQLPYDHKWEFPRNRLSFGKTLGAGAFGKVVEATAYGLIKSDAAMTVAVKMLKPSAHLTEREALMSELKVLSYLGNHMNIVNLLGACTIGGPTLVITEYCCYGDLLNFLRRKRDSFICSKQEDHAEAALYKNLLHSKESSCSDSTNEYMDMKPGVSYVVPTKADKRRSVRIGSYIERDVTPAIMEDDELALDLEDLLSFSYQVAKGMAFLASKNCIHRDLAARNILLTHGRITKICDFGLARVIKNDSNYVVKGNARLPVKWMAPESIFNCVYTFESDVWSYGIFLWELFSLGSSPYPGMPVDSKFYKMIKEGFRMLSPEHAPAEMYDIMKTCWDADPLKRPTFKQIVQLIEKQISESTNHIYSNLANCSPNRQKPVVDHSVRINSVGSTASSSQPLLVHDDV
Assay: cKIT-VVDV kinase Assay
Conditions: enzymatic assay; V559+V560 deletions and D816V mutation
MEASURED ENDPOINT: IC50

Lab note: need IC50 for CCn1c(=O)c(-c2cc(NC(=O)Nc3csc4ccccc34)c(F)cc2C)cc2cnc(NC)cc21 on c-KIT VVDV kinase (Homo sapiens, UniProt P10721, D816V/DEL559-560), anyone have it?
10 to 100 nM

Test system c-KIT VVDV kinase (Homo sapiens, UniProt P10721, D816V/DEL559-560); read-out IC50; what value for CCn1c(=O)c(-c2ccc(F)c(NC(=O)Nc3cccc4ccccc34)c2)cc2cnc(NC)cc21 ?
100 to 1000 nM

Request - read-out IC50 | tested on c-KIT VVDV kinase (Homo sapiens, UniProt P10721, D816V/DEL559-560) | compound CNc1cc2c(cn1)cc(-c1cc(NC(=O)Nc3csc4ccccc34)c(F)cc1F)c(=O)n2C
10 to 100 nM

What is its IC50 for c-KIT VVDV kinase (Homo sapiens, UniProt P10721, D816V/DEL559-560)? Entry: CCn1c(=O)c(-c2cc(NC(=O)Nc3ccccc3)c(F)cc2Cl)cc2cnc(NC(=O)OC)cc21
< 10 nM

Under c-KIT VVDV kinase (Homo sapiens, UniProt P10721, D816V/DEL559-560): IC50 value of CNc1cc2c(cn1)cc(-c1cc(NC(=O)Nc3cccc4ccccc34)c(F)cc1Cl)c(=O)n2C ?
100 to 1000 nM

Which measured IC50 belongs to CCn1c(=O)c(-c2cc(NC(=O)Nc3ccccc3)c(F)cc2C)cc2cnc(NC)cc21 , tested on c-KIT VVDV kinase (Homo sapiens, UniProt P10721, D816V/DEL559-560)?
10 to 100 nM

Form entry - test system: c-KIT VVDV kinase (Homo sapiens, UniProt P10721, D816V/DEL559-560); read-out: IC50; compound: CCn1c(=O)c(-c2cc(NC(=O)Nc3ccccc3)c(F)cc2Cl)cc2cnc(NC(C)=O)cc21
< 10 nM

Lookup: IC50 / c-KIT VVDV kinase (Homo sapiens, UniProt P10721, D816V/DEL559-560) / CNc1cc2c(cn1)cc(-c1cc(NC(=O)Nc3cccc(F)c3)c(F)cc1F)c(=O)n2C(C)C
100 to 1000 nM
